target: MOR-1O (untagged) (Mus musculus)
Sequence (P42866 1-416 isoform P42866-12): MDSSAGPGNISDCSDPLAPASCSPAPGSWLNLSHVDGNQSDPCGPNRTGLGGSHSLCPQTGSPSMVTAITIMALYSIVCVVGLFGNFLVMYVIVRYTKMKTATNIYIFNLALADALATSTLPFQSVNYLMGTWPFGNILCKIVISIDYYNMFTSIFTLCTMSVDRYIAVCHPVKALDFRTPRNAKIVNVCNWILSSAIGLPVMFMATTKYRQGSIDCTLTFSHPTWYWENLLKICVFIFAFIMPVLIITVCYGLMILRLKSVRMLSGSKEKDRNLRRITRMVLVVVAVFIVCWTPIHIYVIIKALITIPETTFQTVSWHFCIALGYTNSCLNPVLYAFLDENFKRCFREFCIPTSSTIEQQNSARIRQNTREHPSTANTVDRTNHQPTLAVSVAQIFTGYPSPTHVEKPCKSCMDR
parameter: Kd (nM)
Give bare numbers, in nM.

// returns reported Kd for input O=C(N[C@@H]1CC[C@@]2(O)[C@H]3Cc4ccc(O)c5c4[C@@]2(CCN3CC2CC2)[C@H]1O5)c1cccc(I)c1 [[^125I]IBNtxA]
0.2

###

biological target: MOR-1-PK (Mus musculus)
Sequence (P42866 whole entry): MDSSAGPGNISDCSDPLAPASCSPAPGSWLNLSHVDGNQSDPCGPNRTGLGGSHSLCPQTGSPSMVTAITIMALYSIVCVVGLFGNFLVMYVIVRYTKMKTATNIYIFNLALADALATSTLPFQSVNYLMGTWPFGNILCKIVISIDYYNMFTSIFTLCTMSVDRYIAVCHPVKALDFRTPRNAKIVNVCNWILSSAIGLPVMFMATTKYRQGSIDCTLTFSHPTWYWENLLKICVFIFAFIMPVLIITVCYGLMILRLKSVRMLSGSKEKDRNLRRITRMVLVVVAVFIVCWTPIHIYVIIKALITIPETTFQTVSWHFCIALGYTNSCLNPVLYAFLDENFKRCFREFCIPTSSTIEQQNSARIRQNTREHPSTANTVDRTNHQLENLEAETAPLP
parameter: Kd (nM)
Answers are plain numbers, in nM.

Checklist item: Kd tested on MOR-1-PK (Mus musculus), entry O=C(N[C@@H]1CC[C@@]2(O)[C@H]3Cc4ccc(O)c5c4[C@@]2(CCN3CC2CC2)[C@H]1O5)c1cccc(I)c1 [[^125I]IBNtxA] , value?
0.1
